Tested on: BT-549
Test: NCI tumour cell line growth inhibition, 48 h
The source made the active and inactive calls. No stated cut-off is given here; in the data, active = GI50 up to about 1.1 µM and inactive = higher.
Hi there, use one of these labels in your reply, thanks! 1 for active, -1 for inactive

Here are 3 molecules together with their reported answers.
C(#Cc1ccccc1)SC1=C(c2ccccc2)S/C(=C(\SC#Cc2ccccc2)c2ccccc2)S1; -1
C(/C=N/c1ccccc1)=C(/Nc1ccccc1)C12CC3CC(CC(C3)C1)C2; -1
COC(=O)c1ccccc1OCc1cc(=O)oc2ccc(C)cc12; -1

[in] Please indicate how the test categorized COC(=O)[C@]1(c2cc3ccccc3n2S(=O)(=O)c2ccccc2)CC2CN(C(=O)OCc3ccccc3)C1C1OC(C)(C)OC21 (stereo partly specified) .
[out] -1

[in] I would be grateful if you could indicate the recorded call for "CCOC(=O)c1ccc(/N=C2/C(=S)N(c3ccc(C(=O)OCC)cc3)C(=N)N2/N=C/c2ccccc2)cc1" .
[out] -1

[in] I would be grateful if you could indicate the recorded call for "Cc1ccc(C(=O)O)cc1S(=O)(=O)Nn1cnc2ccc(S(=O)(=O)Nc3ccccc3C(=O)O)cc2c1=O" .
[out] -1

[in] Hi team, can someone confirm the assay call for C#Cc1nc(N)c2ncn(C3OC(COS(N)(=O)=O)C(O)C3O)c2n1 (stereo unspecified) ?
[out] 1

[in] Just curious, what result did O=C1OCC(O)=C1C(c1ccc(Cl)cc1)c1cc2c(cc1O)OCO2 (stereo unspecified) get here?
[out] -1

[in] Please share the test call associated with "S=C(N/N=C(\C(=N/NC(=S)N1CCCCC1)c1ccccn1)c1ccccn1)N1CCCCC1" .
[out] -1

[in] Test call for this molecule, please: "COc1ccccc1NC(=O)C(=O)Cc1cnc2ccccc2n1"
[out] -1

[in] What outcome does the record of this test show for O=P1(C(O)c2ccccc2)N(Cc2ccccc2)[C@@H]2CCCC[C@H]2N1Cc1ccccc1 (stereo partly specified) ?
[out] -1
